biological target: 2-Hydroxyacid oxidase 1 (Mus musculus, UniProt Q9WU19); test: Inhibition of recombinant mouse GOX expressed in Escherichia coli C41 (DE3) using glycolate as substrate preincubated for 10 mins followed by substrate addition measured by Amplex red and horseradish peroxidase based fluorescence assay
Sequence (Q9WU19 whole entry): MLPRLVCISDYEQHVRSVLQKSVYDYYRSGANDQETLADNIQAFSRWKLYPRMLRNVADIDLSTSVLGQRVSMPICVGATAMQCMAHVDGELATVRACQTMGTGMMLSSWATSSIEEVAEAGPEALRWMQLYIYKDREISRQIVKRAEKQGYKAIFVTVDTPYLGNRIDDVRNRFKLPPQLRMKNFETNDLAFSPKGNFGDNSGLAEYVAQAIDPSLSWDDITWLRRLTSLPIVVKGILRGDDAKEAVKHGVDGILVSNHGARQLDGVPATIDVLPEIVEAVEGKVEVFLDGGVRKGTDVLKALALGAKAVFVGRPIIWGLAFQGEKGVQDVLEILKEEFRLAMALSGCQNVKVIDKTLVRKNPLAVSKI
property_measured: IC50 (nM)

A. NS(=O)(=O)c1ccc(Cc2c(-c3cccc(Sc4[nH]nnc4C(=O)O)c3)nn(-c3nc(C(=O)O)cs3)c2CC2CC2)cc1F
B. O=C(O)c1[nH]nnc1Sc1ccc(Cl)cc1
Input: # argmax over IC50 for candidates A and B To answer, give the label that identifies your chosen option.
Output: B

The origin of these recorded values is ChEMBL document CHEMBL4825721.
